Target: T1, Qki-5 full-length (UniProt Q9QYS9 1-341)
T1 sequence: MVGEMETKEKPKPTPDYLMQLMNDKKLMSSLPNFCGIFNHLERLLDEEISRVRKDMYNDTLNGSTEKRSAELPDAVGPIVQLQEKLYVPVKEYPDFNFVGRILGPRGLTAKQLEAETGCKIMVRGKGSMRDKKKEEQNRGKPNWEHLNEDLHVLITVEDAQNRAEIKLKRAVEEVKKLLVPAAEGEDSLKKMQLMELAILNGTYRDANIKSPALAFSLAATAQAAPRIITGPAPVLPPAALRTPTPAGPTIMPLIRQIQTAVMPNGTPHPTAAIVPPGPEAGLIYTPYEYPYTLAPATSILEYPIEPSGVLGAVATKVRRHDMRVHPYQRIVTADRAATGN
Experiment: MST; MST: 20 nM Atto488-protein, PBS with Tween-20 (0.1% in 2x protein stock), 25 C; ITC: 50 mM Tris pH 7.5, 150 mM NaCl, 20 C
Conditions: protein: recombinant; tags: N-terminal Trx-His6 (PreScission site); Atto488-NHS labeled for MST; chain copies: 2
Assay endpoint: Kd (µM)
// return numeric value only (unit: µM, not printed)

I am curious: what Kd value has been reported for CCAGTAACCAG (ssDNA) [QDE1] ?
2.01

// same read-out, input: CAGAGCGCGCG (ssDNA) [QDE5-m]
83

// same read-out, input: GGGGTAAGGGG (ssDNA) [QDE4]
81
